Origin of measurements: the supplement of paper PMC11579375

Field: area under the viability dose-response curve. Provide a value for each of the compounds that follow.
- Tested on: 3E (embryonal-type hepatoblastoma organoid)
- Assay comment: area under the viability dose-response curve (AUC) (AUC (arbitrary units, max 500 = no viability loss)); higher = less sensitive (higher viability)
- Condition context: exposure time: 120 h; concentration range: 0.1 nM - 10 µM, 6 doses
Numbers only.

Example entries and their recorded answers appear below.
INSERT INTO assay_data (compound, quantitative_readout) VALUES
  ('CCn1cc(-c2ccnc3[nH]c(-c4cccc(CN(C)C)c4)cc23)c(-c2ccc(NC(=O)N(C)C)cc2)n1', 322),
  ('CC(C)(C)c1nc(-c2cccc(NS(=O)(=O)c3c(F)cccc3F)c2F)c(-c2ccnc(N)n2)s1', 491),
  ('C[C@@H]1COCCN1c1cc(C2([S@](C)(=N)=O)CC2)nc(-c2cc[nH]c3nccc2-3)n1', 442),
  ('COCc1c(-c2cc3cc(C)cc(OC)c3s2)c2c(N)ncnn2c1CN1CCNC(=O)C1', 361),
  ('CO[C@H]1C[C@@H]2CC[C@@H](C)[C@@](O)(O2)C(=O)C(=O)N2CCCC[C@H]2C(=O)O[C@H]([C@H](C)C[C@@H]2CC[C@@H](OC(=O)C(C)(CO)CO)[C@H](OC)C2)CC(=O)[C@H](C)/C=C(\C)[C@@H](O)[C@@H](OC)C(=O)[C@H](C)C[C@H](C)/C=C/C=C/C=C/1C', 280);

Need area under the viability dose-response curve for each of these compounds.
1. CNC(=O)c1ccc(Nc2ncc(C(F)(F)F)c(NCc3nccnc3N(C)S(C)(=O)=O)n2)cc1
2. CC1=C(/C=C/C(C)=C/C=C/C(C)=C\C(=O)O)C(C)(C)CCC1
3. Cc1c(-c2c(-c3ccc(F)o3)sc3ncnc(O[C@H](Cc4ccccc4OCc4ccnn4CC(F)(F)F)C(=O)O)c23)ccc(OCCN2CCN(C)CC2)c1Cl
4. NC(=O)c1cccc2cn(-c3ccc([C@@H]4CCCNC4)cc3)nc12
5. Cc1cnc(CNC(=O)c2c(=O)c3ccc(N4CCCN(C)CC4)nc3n3c2sc2ccccc23)cn1
6. CN[C@@H](C)C(=O)N[C@H](C(=O)N1CCC[C@H]1C(=O)N[C@H]1c2ccccc2C[C@H]1OCC#CC#CCO[C@@H]1Cc2ccccc2[C@@H]1NC(=O)[C@@H]1CCCN1C(=O)[C@@H](NC(=O)[C@H](C)NC)C1CCCCC1)C1CCCCC1
7. CNC(=O)c1cc(Oc2ccc(NC(=O)Nc3ccc(Cl)c(C(F)(F)F)c3)c(F)c2)ccn1

[454, 440, 234, 461, 396, 148, 387]

Need area under the viability dose-response curve for each of these compounds.
1. COCC[n+]1c2c(n(Cc3cnccn3)c1C)C(=O)c1ccccc1C2=O [Sepantronium bromide]
2. O=C(NC1CCNCC1)c1n[nH]cc1NC(=O)c1c(Cl)cccc1Cl

1. 241
2. 332

----------
- Test system: 13F2 (fetal-II hepatoblastoma organoid with high liver markers)
- Assay comment: area under the viability dose-response curve (AUC) (AUC (arbitrary units, max 500 = no viability loss)); higher = less sensitive (higher viability)
- Condition context: exposure time: 120 h; concentration range: 0.1 nM - 10 µM, 6 doses
Field: area under the viability dose-response curve. Provide a value for each of the compounds that follow.
Numbers only.

Example entries and their recorded answers appear below.
INSERT INTO measurements (compound, quantitative_readout) VALUES
  ('C/C=C1\NC(=O)[C@H]2CSSCC/C=C/[C@H](CC(=O)N[C@H](C(C)C)C(=O)N2)OC(=O)[C@H](C(C)C)NC1=O [Romidepsin]', 143),
  ('CNC(=O)c1ccc(-c2cnc3ncc(Cc4ccc5ncccc5c4)n3n2)cc1F [Capmatinib]', 403);

Need area under the viability dose-response curve for each of these compounds.
1. COc1cc(OC)cc(N(CCNC(C)C)c2ccc3ncc(-c4cnn(C)c4)nc3c2)c1 [Erdafitinib]
2. CO[C@H]1C[C@@H]2CC[C@@H](C)[C@@](O)(O2)C(=O)C(=O)N2CCCC[C@H]2C(=O)O[C@H]([C@H](C)C[C@@H]2CC[C@@H](O)[C@H](OC)C2)CC(=O)[C@H](C)/C=C(\C)[C@@H](O)[C@@H](OC)C(=O)[C@H](C)C[C@H](C)/C=C/C=C/C=C/1C [Sirolimus]
3. CCCS(=O)(=O)Nc1ccc(F)c(C(=O)c2c[nH]c3ncc(-c4ccc(Cl)cc4)cc23)c1F [Vemurafenib]
4. CC1(C)CCC2(CC1)N[C@@H](C(=O)N[C@@H]1CC[C@@H](C(N)=O)OC1)[C@H](c1ccnc(Cl)c1F)[C@]21C(=O)Nc2cc(Cl)ccc21 [Milademetan]

1. 323
2. 319
3. 440
4. 256

Need area under the viability dose-response curve for each of these compounds.
1. Cc1cc(C)cc(C(=O)NOCCCCCC(=O)NO)c1 [LMK-235]
2. C[C@@H]1C[C@H]2[C@@H]3CCC4=CC(=O)C=C[C@]4(C)[C@@]3(F)[C@@H](O)C[C@]2(C)[C@@]1(O)C(=O)CO [Dexamethasone]
3. Cn1cnc2c(F)c(Nc3ccc(Br)cc3F)c(C(=O)NOCCO)cc21 [Binimetinib]

1: 379; 2: 494; 3: 379
